experiment: Determination of the solubility in 5% strength aqueous dextrose solution; format: physicochemical; details: saline or isotonic, thermodynamic from solid
REPORTED ENDPOINT: solubility at 24 h

compound="N#Cc1c(N)nc(SCc2csc(-c3ccc(Cl)cc3)n2)c(C#N)c1-c1ccc(OCCO)cc1 [compound (A), reference compound]" reported_endpoint="solubility at 24 h" reported_measurement="< 0.1 µg/mL"

----------
Reported % test substance after 24 h [F(t = 24 h) × 100/F(t = 0 h)] by item:
assay: Stability in buffer at various pH values; type: physicochemical; settings: pH 7.4, 37° C., 24 h
Where a name gives a salt, the structure may show the parent alone.
REPORTED ENDPOINT: % test substance after 24 h [F(t = 24 h) × 100/F(t = 0 h)] (%)

molecule=N#Cc1c(N)nc(SCc2csc(-c3ccc(Cl)cc3)n2)c(C#N)c1-c1ccc(OCCOC(=O)CC[C@H](NC(=O)CCC(=O)O)C(=O)O)cc1 scale_unit=% reported_measurement=100
molecule="CC(C)[C@H](NC(=O)CCN)C(=O)OCCOc1ccc(-c2c(C#N)c(N)nc(SCc3csc(-c4ccc(Cl)cc4)n3)c2C#N)cc1 [Example 2, hydrochloride]" scale_unit=% reported_measurement=100
molecule="CC(C)C[C@H](NC(=O)[C@@H](N)CCCCN)C(=O)OCCOc1ccc(-c2c(C#N)c(N)nc(SCc3csc(-c4ccc(Cl)cc4)n3)c2C#N)cc1 [Example 11, dihydrochloride]" scale_unit=% reported_measurement=55
molecule="N#Cc1c(N)nc(SCc2csc(-c3ccc(Cl)cc3)n2)c(C#N)c1-c1ccc(OCCOC(=O)CC[C@H](N)C(=O)NCCN)cc1 [Example 6, dihydrochloride]" scale_unit=% reported_measurement=0
molecule="CC(C)[C@H](NC(=O)[C@@H](N)CCCCN)C(=O)OCCOc1ccc(-c2c(C#N)c(N)nc(SCc3csc(-c4ccc(Cl)cc4)n3)c2C#N)cc1 [Example 1, dihydrochloride]" scale_unit=% reported_measurement=96
molecule="C[C@H](NC(=O)[C@@H](N)CCCNC(=N)N)C(=O)OCCOc1ccc(-c2c(C#N)c(N)nc(SCc3csc(-c4ccc(Cl)cc4)n3)c2C#N)cc1 [Example 14, dihydrochloride]" scale_unit=% reported_measurement=8
molecule="N#Cc1c(N)nc(SCc2csc(-c3ccc(Cl)cc3)n2)c(C#N)c1-c1ccc(OCCOC(=O)CC[C@@H](N)C(=O)NCCN)cc1 [Example 13, dihydrochloride]" scale_unit=% reported_measurement=0
molecule="C[C@H](NC(=O)[C@@H](N)CCCCN)C(=O)OCCOc1ccc(-c2c(C#N)c(N)nc(SCc3csc(-c4ccc(Cl)cc4)n3)c2C#N)cc1 [Example 4, dihydrochloride]" scale_unit=% reported_measurement=2
